tested on: HL-60; test: Cytotoxicity against human HL60 cells assessed as reduction in cell viability incubated for 24 hrs by CellTiter-Glo luminescent cell viability assay; type: functional, cell-based; settings: HL-60, 24 h
Entries and their IC50
Please respond with the number in µM and leave the unit unwritten.

| Compound | IC50 / µM |
| --- | --- |
| O=C(O)c1cccc(NC2=C(Cl)C(=O)c3ccccc3C2=O)c1 | 12.1 |
| CC1=C(SCCO)C(=O)c2ccccc2C1=O | 9.3 |

Turning to the following compound.
input: Would you kindly share the measured IC50 for O=C(O)c1ccc(NC2=C(Cl)C(=O)c3ccccc3C2=O)cc1 ?
output: 8.9

The reported numbers originate from ChEMBL document CHEMBL4311981.
